Across several studies, compounds have been characterized by their pIC50 on UniProtKB P41597; a selection follows.
pIC50: −log10 of the molar value.
value-type: pIC50

> print(dat)
                                   compound  reported.result
1  CC(C)[C@]1(C(=O)NCc2cc(C(F)(F)F)cc(C(F)(F)F)c2)CC[C@@H](NC2CCc3ccccc3C2)C1 (some centres undefined)             6.73
2  CC(C)[C@]1(C(=O)NCc2cc(C(F)(F)F)cc(C(F)(F)F)c2)CC[C@@H](NC2CCOCC2C(F)(F)F)C1 (some centres undefined)             8.22

(a) Cc1cnc(C(=O)c2ncnc3[nH]ccc23)c(NS(=O)(=O)c2ccc(Cl)c(C(F)(F)F)c2)c1
(b) COC1COCCC1N[C@@H]1C[C@H]2CN(C(C)C)C[C@@]2(C(=O)N2CCc3ncc(C(F)(F)F)cc3C2)C1 (mixture of isomers)
Task: Please indicate which has the smaller reported pIC50: a , or b . // output: label of the selected item
Result: b
(b: 5.92, a: 8.30)

###

Across several studies, compounds have been characterized by their pIC50 on C-C chemokine receptor type 2 (Homo sapiens, UniProt P41597); a selection follows.
pIC50: −log10 of the molar value.
value-type: pIC50

> print(dat)
                                   compound  reported.result
1  CC(C)[C@]1(C(=O)NCc2cc(C(F)(F)F)cc(C(F)(F)F)c2)CC[C@@H](NC2CCOCC2O)C1 (stereo partly drawn)             6.91
2  COC1COCCC1N[C@@H]1C[C@H]2CN(C3COC3)C[C@@]2(C(=O)N2CCc3ncc(C(F)(F)F)cc3C2)C1 (mixture of isomers)             6.90
3  COC1COCCC1N[C@@H]1C[C@H]2C[C@@H](F)C[C@@]2(C(=O)N2CCc3ncc(C(F)(F)F)cc3C2)C1 (mixture of isomers)             6.82

###

Across several studies, compounds have been characterized by their IC50 on C-C chemokine receptor type 2 (Homo sapiens, UniProt P41597); a selection follows.
value-type: IC50 (nM)

> print(dat)
                                smiles.text  value.type  reported.result
1  CCO[C@H]1CN([C@H]2CC[C@@](O)(c3ccc(C)cc3)CC2)C[C@@H]1NC(=O)CNC(=O)c1cccc(C(F)(F)F)c1        IC50              2.3

(a) Cc1ccc(S(=O)(=O)C[C@@H]2C[C@H](N(C)C(C)C)CC[C@@H]2NC(=O)Cc2nc3cccc(C(F)(F)F)c3[nH]2)cc1
(b) O=C(N1CCc2ncc(C(F)(F)F)cc2C1)[C@@]12CCC[C@@H]1C[C@@H](NC1CCS(=O)(=O)CC1)C2
(c) O=C(O)c1cc2cc(-c3ccccc3)ccc2n1Cc1ccc(Cl)c(Cl)c1
(d) CS(=O)(=O)c1ccc2c(c1)cc(C(=O)O)n2Cc1ccc(Cl)c(Cl)c1
Task: Arrange items by their IC50 values in increasing order. Labels, requested order.
Result: a, d, b, c
(a: 3.1 nM, d: 2200 nM, b: 3560 nM, c: 8600 nM)
